assayed-system: contractile response induced by histamine in isolated guinea-pig ileum (Cavia porcellus)
Construct: An approximately 20 mm strip of isolated ileum was mounted vertically; from tissue; host or cells: isolated ileum strip, male Hartley guinea-pig
Sequence (P31389 whole entry): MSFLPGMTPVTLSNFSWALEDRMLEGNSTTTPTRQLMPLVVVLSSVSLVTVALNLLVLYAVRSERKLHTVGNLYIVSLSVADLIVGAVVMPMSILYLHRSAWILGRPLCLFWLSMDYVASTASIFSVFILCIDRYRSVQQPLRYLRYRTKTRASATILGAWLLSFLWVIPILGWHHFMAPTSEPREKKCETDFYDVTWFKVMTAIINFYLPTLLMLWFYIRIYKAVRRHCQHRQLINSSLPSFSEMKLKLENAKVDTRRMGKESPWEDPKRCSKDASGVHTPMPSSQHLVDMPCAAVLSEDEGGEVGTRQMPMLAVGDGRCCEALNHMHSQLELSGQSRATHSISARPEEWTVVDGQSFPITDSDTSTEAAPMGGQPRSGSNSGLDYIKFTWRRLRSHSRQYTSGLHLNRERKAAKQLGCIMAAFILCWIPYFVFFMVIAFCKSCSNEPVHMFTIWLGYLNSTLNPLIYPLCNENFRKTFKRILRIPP
assay-remarks: Antihistaminic activity (Effect on the contractile response induced by histamine in isolated guinea-pig ileum)
Design: species or system guinea-pig (male Hartley)
particulars: dissociation constant KB (M), method of Furchgott, 30 min contact with test compound, 28° C.
Description: 1. Antihistaminic activity (Effect on the contractile response induced by histamine in isolated guinea-pig ileum) Male Hartley guinea-pigs, 5-8 weeks of age, were sacrificed and the ileum was excised. […] The contractile response was recorded on a recticorder an isotonic transducer. The concentration-contractile response curve to histamine was constructed before and after 30 min contact with test compounds.
Listed here: items and their measured log10(Kb).
measurement-kind: log10(Kb) (log10 of the value in M)

In [3]: df
Out[3]:
                                   compound  quantitative_result
0  CCOC(=O)CCCCCN1CCN2c3ccccc3Cc3ccccc3C2C1 (stereo not shown) [Example 39]                -7.89
1  O=C(O)CCN1CCN(C2=Nc3ccccc3Oc3ccc(Cl)cc32)CC1 [Example 8]                -7.30
2  CCOC(=O)CCCCN1CCN(C2=Nc3ccccc3Oc3ccc(Cl)cc32)CC1 [Example 5]                -7.98
3  O=C(O)CCCCCN1CCN(C2=Nc3ccccc3Sc3ccc(Cl)cc32)CC1 [Example 22]                -7.46
4  CCOC(=O)CCN1CCN2c3ccccc3Cc3ccccc3C2C1 (stereo not shown) [Example 35]                -8.57
5  O=C(O)CCN1CCN2c3ccccc3Cc3ccccc3C2C1 (stereo not shown) [Example 41]                -7.60
6  O=C(O)CCN1CCN(C2=Nc3ccccc3Sc3ccc(Cl)cc32)CC1 [Example 19]                -7.28
